- Tested on: L1210 leukemia ip in BDF1 mice, survival T/C
- Assay details: NCI In Vivo Anticancer Drug Screen. Data for tumor model L1210 Leukemia (intraperitoneal) in B6D2F1 (BDF1) mice
- Run parameters: endpoint: mean survival time; dose: 100.0 mg/kg/injection; schedule: Q01DX001 (ip); vehicle: carboxymethylcellulose (CMC)
Toxic doses and inconclusive results are not listed. Rule as the data show it: active = T/C of 150% or more; inactive = T/C below 125%.
Give one outcome, nothing more. List: yes (1) (active), no (0) (inactive)

Consider the worked cases shown below.
[[record]]
molecule = "O=C(Oc1ccc(N=Cc2ccc3c(c2)OCO3)cc1)Oc1ccc(N=Cc2ccc3c(c2)OCO3)cc1"
assigned_label = "no (0)"

[[record]]
molecule = "Cc1ccc(S(=O)(=O)Nc2ccc(Br)cc2)cc1"
assigned_label = "no (0)"


Answer briefly: the call reported for O=C(Nc1cccc(Cl)c1)Nc1ccc(Br)c(C(F)(F)F)c1 in this assay.
no (0)

Answer briefly: the call reported for CC(C)CN(C)/N=N/c1nc[nH]c1C(N)=O in this assay.
no (0)

Answer briefly: the call reported for O=C(CCl)c1ccccc1 in this assay.
no (0)

Answer briefly: the call reported for CCCC(=O)OCC1OC(n2cc(C)c(=O)[nH]c2=O)CC1OC(=O)CCC (stereo not given) in this assay.
no (0)

Answer briefly: the call reported for CCc1ccc(N=Nc2ccc(N)cc2)cc1 in this assay.
no (0)

Answer briefly: the call reported for CCCCC(CCCC)(S(=O)(=O)CC)S(=O)(=O)CC in this assay.
no (0)
